# study-target: Diacylglycerol O-acyltransferase 1 (Homo sapiens)
measurement-label: IC50

Cc1cc(N2CCOc3ncnc(N)c3C2=O)cc(C)c1C#CC(C)(C)CC(=O)O yielded IC50 of 21 to 28 nM

----------
# test-name: Cmax in CD1 mouse at 10 mg/kg, po
# Assay type: ADME, organism-based
# Design: dose 10 mg/kg, route oral
# condition-set: in vivo
measurement-label: Cmax (ng/mL)
Answer in ng/mL, number only, no unit symbol.

Cmax measured on Cc1cc(N2CCOc3ncnc(N)c3C2=O)cc(C)c1C#CC(C)(C)CC(=O)O = 521

----------
// Vd lookup, one value per entry
# test-name: Volume of distribution at steady state in Sprague-Dawley rat at 0.5 mg/kg, iv
# Type: ADME, organism-based
# condition-set: in vivo, read-out: Vdss
Your answer should be a plain number; it is taken to be in L/kg.

>>> observed_result("CC(C)(C#Cc1ccc(N2CCOc3ncnc(N)c3C2=O)cc1)CC(=O)O")
1.06

Switching to the query record.
// Cc1cc(N2CCOc3ncnc(N)c3C2=O)cc(C)c1C#CC(C)(C)CC(=O)O : Vd value = 1.12

----------
# test-name: Intrinsic clearance in human liver microsomes
# Format: ADME, microsome
# condition-set: read-out: CLH
measurement-label: CLint scaled

The measured CLint scaled associated with Cc1cc(N2CCOc3ncnc(N)c3C2=O)cc(C)c1C#CC(C)(C)CC(=O)O reads < 9.5 mL/min/kg

----------
# test-name: Tmax in CD1 mouse at 10 mg/kg, po
# Type: ADME, organism-based
# condition-set: in vivo
measurement-label: Tmax (min)
Could you give me the number in min? Just the number is fine.

Sure, the documented Tmax for Cc1cc(N2CCOc3ncnc(N)c3C2=O)cc(C)c1C#CC(C)(C)CC(=O)O is 30

----------
# test-name: AUC in Sprague-Dawley rat at 10 mg/kg, po
# Type: ADME, organism-based
# condition-set: in vivo
measurement-label: AUC (ng·h/mL)
Lab book: enter the figure in ng·h/mL, no units written.

>>> observed_result("CC(C)(C#Cc1ccc(N2CCOc3ncnc(N)c3C2=O)cc1)CC(=O)O")
4100

Input Cc1cc(N2CCOc3ncnc(N)c3C2=O)cc(C)c1C#CC(C)(C)CC(=O)O . Output AUC: 21000

----------
# test-name: AUC in CD1 mouse at 10 mg/kg, po
# Type: ADME, organism-based
# condition-set: in vivo
measurement-label: AUC
Write the quantity with the unit trailing the number.

The compound identified as Cc1cc(N2CCOc3ncnc(N)c3C2=O)cc(C)c1C#CC(C)(C)CC(=O)O registered its AUC at 1250 ng·h/mL

----------
# study-target: Diacylglycerol O-acyltransferase 1 (Homo sapiens, UniProt O75907)
# Sequence (O75907 whole entry): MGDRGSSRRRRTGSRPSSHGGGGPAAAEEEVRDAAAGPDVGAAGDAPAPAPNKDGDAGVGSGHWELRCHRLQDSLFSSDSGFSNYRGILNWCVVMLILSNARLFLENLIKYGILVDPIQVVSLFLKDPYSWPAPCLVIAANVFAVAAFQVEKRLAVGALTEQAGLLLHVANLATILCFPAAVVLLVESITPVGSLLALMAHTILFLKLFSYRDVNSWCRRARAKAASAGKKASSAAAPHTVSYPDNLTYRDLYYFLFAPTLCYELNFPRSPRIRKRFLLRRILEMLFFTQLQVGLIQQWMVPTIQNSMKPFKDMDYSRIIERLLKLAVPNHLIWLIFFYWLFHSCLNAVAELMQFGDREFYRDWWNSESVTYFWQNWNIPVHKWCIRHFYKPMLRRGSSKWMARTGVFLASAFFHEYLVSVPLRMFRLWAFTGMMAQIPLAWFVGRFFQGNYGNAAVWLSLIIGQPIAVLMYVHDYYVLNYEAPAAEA
# test-name: Inhibition of DGAT1 in human HEK293 cells using [13C18]oleic acid as substrate assessed as decrease in triacylglycerol synthesis preincubated for 15 mins followed by [13C18]oleic acid addition measured after 2 hrs by LC/MS/MS analysis
measurement-label: EC50 (nM)
The answer is to be given in nM; state only the numeric part.

The value of EC50 measured for the compound Cc1cc(N2CCOc3ncnc(N)c3C2=O)cc(C)c1C#CC(C)(C)CC(=O)O turned out to be 26

----------
# test-name: Oral bioavailability in CD1 mouse at 10 mg/kg
# Format: ADME, organism-based
# condition-set: in vivo
measurement-label: bioavailability (%)
Answer in %, number only, no unit symbol.

So for Cc1cc(N2CCOc3ncnc(N)c3C2=O)cc(C)c1C#CC(C)(C)CC(=O)O , the logged bioavailability turned out to be 31

----------
# test-name: Solubility of the compound at pH 7.4
# Type: physicochemical
# condition-set: buffer
measurement-label: solubility (µM)
# number only, unit µM dropped from output

So, Cc1cc(N2CCOc3ncnc(N)c3C2=O)cc(C)c1C#CC(C)(C)CC(=O)O ? Its solubility was 110

----------
# study-target: Cytochrome P450 1A2 (Homo sapiens)
# Sequence (P05177 whole entry): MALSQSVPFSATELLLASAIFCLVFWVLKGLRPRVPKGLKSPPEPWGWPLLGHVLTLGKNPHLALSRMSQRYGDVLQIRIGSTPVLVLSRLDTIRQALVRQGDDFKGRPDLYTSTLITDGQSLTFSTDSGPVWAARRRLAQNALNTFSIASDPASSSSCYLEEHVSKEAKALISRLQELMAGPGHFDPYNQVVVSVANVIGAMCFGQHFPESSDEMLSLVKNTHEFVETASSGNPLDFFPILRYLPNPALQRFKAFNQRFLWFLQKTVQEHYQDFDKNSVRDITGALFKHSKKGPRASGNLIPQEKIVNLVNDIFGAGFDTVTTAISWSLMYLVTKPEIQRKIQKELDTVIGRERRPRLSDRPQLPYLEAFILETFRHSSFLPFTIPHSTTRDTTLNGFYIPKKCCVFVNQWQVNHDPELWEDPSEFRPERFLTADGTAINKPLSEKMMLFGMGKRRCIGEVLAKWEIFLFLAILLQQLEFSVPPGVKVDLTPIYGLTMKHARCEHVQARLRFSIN
measurement-label: pIC50
Lab note: report pIC50 as minus log10 of the concentration in molar units, number only.

Entry under test: Cc1cc(N2CCOc3ncnc(N)c3C2=O)cc(C)c1C#CC(C)(C)CC(=O)O . Its pIC50 was 4.56

----------
# test-name: Tmax in Sprague-Dawley rat at 10 mg/kg, po
# Format: ADME, organism-based
# condition-set: in vivo
Consider the following compounds and their measured Tmax readings.
Enter your answer as a number in min; do not include the unit.

>>> observed_result("CC(C)(C#Cc1ccc(N2CCOc3ncnc(N)c3C2=O)cc1)CC(=O)O")
30

Moving on to the next compound.
Query Cc1cc(N2CCOc3ncnc(N)c3C2=O)cc(C)c1C#CC(C)(C)CC(=O)O yields Tmax of 30

----------
# test-name: Clearance in CD1 mouse at 0.5 mg/kg, iv
# Type: ADME, organism-based
# condition-set: in vivo
measurement-label: clearance (mL/min/kg)
Kindly provide the numeric value in mL/min/kg only, without the unit symbol.

Lab book: clearance of Cc1cc(N2CCOc3ncnc(N)c3C2=O)cc(C)c1C#CC(C)(C)CC(=O)O noted as 39.3

----------
# test-name: Metabolic stability in human liver microsomes assessed as parent compound remaining measured at 60 mins
# Format: ADME, microsome
# condition-set: read-out: Stability
measurement-label: remaining at 1 h (%)
Numeric only. Scale: %

For Cc1cc(N2CCOc3ncnc(N)c3C2=O)cc(C)c1C#CC(C)(C)CC(=O)O the compound record lists remaining at 1 h as 97.6
